Values from the RNAGym collection of RNA variant scans (doi:10.1093/molbev/msab373)

variants and their reported reverse-splicing fitness
B1: Azoarcus group I ribozyme (parent)
chain: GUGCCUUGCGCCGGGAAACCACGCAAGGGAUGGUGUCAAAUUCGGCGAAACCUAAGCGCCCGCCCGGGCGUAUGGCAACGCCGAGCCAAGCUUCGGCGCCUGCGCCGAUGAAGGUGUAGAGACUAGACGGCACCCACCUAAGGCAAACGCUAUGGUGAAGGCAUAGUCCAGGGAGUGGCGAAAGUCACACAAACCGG

variants of: B1; assay: reverse-splicing fitness (ratio to wild type); higher = more active; in vitro selection; Mg2+ level not given

{"columns": ["VARIANT_CODE", "reverse-splicing fitness"],
 "data": [
  ["C82U A111G A120C A145G C150G U176C", 0.00793],
  ["C82U A111G A120U A145U C150U C169U U176G", 0.00192],
  ["C82G A120G A145C C150U C169A U176A", 0.0126],
  ["C82G A111U A145U C150U C169A U176G", 0.00678],
  ["C82G A111C A145C C150G C169U U176C", 0.0102],
  ["C82A A111U A120U A145C C150A C169G U176A", 0.00303],
  ["A111U A120C A145U C150U U176A", 0.194],
  ["C82U A120U A145U C150A C169G", 0.00199],
  ["C82G A111C A120U C150U C169A U176G", 0.00243],
  ["C82U A111G A145U C150A C169G U176A", 0.0131],
  ["A111G A145U C150U C169A U176C", 0.0144]
]}
